// data source = paper PMC3076703

biological target: UGT1A4^24Pro/48Leu (Homo sapiens, UniProt P22310); assay: Glucuronidation assay, UGT1A4 24Pro/48Leu-overexpressing HEK293 cell homogenate; assay type: in vitro ADME; details: UGT1A4 24Pro/48Leu
Sequence (P22310 29-534): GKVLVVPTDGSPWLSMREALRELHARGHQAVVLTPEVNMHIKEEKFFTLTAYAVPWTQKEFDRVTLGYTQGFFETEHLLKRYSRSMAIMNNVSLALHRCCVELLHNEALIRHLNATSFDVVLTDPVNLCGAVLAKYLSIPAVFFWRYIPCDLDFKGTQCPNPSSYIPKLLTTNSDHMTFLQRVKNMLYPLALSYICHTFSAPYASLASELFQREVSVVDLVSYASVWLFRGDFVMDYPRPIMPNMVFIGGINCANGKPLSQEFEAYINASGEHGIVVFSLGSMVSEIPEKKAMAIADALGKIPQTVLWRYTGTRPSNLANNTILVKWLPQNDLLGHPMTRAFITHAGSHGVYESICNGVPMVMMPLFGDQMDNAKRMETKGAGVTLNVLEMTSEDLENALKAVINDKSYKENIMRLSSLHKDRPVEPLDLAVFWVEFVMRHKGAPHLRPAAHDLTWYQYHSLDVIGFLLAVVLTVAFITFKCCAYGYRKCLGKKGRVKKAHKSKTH
Endpoint: Km
Report as: number unit

Noted for C=C1C[C@H]2[C@@H]3CC[C@H](O)[C@@]3(C)CC[C@@H]2[C@@]2(C)C=CC(=O)C=C12 [17-dihydroexemestane] : its Km reads 34 µM

----------
molecular target: UGT1A4^24Pro/48Val (Homo sapiens, UniProt P22310, L48V); assay type: in vitro ADME
Sequence (P22310 29-534 L48V): as the sequence (P22310 29-534) above, with L20V counted along it
Endpoint: Km (µM)
// units = µM; emit number, no label

Noted for C=C1C[C@H]2[C@@H]3CC[C@H](O)[C@@]3(C)CC[C@@H]2[C@@]2(C)C=CC(=O)C=C12 [17-dihydroexemestane] : its Km reads 36
